Target: hPXR (Homo sapiens)
Sequence (O75469 1-434): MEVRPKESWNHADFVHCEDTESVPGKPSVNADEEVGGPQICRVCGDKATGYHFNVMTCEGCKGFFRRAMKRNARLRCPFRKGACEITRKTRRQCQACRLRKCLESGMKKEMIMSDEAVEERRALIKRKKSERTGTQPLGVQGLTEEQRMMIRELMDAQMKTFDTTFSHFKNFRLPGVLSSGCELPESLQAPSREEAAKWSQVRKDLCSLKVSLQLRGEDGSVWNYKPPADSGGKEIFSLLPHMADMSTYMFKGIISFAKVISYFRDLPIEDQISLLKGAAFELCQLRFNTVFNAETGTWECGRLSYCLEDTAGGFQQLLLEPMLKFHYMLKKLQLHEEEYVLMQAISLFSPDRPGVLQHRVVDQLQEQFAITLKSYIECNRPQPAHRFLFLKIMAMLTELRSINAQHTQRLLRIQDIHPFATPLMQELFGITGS
Conditions: read-out: PXR Primary EC50; qHTS primary screen, hPXR-Luc HepG2, 24 h
metric_name: EC50

> print(dat)
                                   compound          test.system  metric.name  assay.result
1  Cc1oc2c(NC(=O)c3c(Cl)cccc3Cl)cccc2c1C(C)(C)O [FR167356]  hPXR (Homo sapiens)         EC50       3000 nM

These entries and their values trace back to paper PMC9440615.
